# TEST_SYSTEM: Vascular endothelial growth factor receptor 2 (Homo sapiens, UniProt P35968)
# Sequence (P35968 whole entry): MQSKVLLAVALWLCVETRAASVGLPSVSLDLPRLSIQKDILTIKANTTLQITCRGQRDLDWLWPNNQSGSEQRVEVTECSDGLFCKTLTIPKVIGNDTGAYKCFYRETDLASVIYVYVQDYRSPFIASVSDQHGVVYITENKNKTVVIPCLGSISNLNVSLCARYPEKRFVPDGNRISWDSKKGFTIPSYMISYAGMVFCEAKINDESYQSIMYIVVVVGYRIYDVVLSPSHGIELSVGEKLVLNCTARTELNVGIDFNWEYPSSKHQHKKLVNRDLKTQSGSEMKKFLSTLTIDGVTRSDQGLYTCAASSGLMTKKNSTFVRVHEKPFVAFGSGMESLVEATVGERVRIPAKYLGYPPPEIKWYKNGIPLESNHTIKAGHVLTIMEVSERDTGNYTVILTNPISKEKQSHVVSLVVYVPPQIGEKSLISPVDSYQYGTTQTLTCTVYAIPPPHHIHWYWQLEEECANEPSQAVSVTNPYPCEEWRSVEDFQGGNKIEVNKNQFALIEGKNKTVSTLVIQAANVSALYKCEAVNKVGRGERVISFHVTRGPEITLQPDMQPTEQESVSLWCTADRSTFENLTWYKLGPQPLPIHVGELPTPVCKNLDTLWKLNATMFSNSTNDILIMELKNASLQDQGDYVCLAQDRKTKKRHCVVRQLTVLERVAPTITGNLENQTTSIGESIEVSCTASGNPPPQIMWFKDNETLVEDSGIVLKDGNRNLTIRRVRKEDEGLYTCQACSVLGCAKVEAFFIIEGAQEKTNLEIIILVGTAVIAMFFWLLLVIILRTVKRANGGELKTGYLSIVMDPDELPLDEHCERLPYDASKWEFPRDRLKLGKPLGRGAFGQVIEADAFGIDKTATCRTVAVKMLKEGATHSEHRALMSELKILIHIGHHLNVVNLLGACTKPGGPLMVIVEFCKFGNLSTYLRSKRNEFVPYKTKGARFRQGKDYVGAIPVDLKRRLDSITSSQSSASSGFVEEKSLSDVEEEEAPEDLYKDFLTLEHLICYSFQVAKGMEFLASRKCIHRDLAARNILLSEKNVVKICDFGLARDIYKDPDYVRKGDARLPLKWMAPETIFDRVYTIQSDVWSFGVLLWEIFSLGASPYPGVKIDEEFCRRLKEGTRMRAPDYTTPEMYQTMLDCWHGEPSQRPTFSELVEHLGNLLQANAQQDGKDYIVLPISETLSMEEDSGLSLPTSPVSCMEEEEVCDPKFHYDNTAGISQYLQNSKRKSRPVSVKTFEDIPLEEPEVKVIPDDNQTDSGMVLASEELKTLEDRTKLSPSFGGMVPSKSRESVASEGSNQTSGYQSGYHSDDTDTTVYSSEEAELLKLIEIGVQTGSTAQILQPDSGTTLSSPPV
OUTCOME_MEASURE: IC50 (µM)
Give the quantity in µM, number only.

Q) State, for Vascular endothelial growth factor receptor 2 (Homo sapiens, UniProt P35968), measured IC50 of the compound listed here: C/C(=C\C=C\CC(C)C(CC(=O)O)O[C@H]1O[C@@H](CO)[C@H](O)[C@H](O)[C@@H]1O)C(=O)O (stereo partly specified)
A) 5

Origin of values: ChEMBL document CHEMBL1143483
